biological target: PIM1 (Homo sapiens (Human)); assay: biochemical; assay type: biochemical; details: 10 μM ATP, 90 min, room temperature; read-out: PIM1 LC3K (KI)
Sequence (P11309 whole entry): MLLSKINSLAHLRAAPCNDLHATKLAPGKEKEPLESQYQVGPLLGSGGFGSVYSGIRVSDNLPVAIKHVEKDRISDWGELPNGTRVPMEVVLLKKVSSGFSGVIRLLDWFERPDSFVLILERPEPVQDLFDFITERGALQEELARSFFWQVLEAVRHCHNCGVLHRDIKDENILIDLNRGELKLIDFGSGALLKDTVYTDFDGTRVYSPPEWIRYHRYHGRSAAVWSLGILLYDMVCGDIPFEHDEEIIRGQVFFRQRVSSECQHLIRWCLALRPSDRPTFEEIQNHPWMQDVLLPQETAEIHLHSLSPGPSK
pKi: −log10 of the molar value.
quantity measured: pKi

Look over these answered cases.
molecule	readout number
Cc1cncc(-c2cc3c(cn2)cnn3-c2cccc(N3CCC4(CCNCC4)C3)n2)n1 [Compound 199]	9.15
Cc1cncc(-c2cc3c(cn2)cnn3-c2cccc(N3CCNCCC3=O)n2)n1 [Compound 206]	8.43
FC(F)(F)Cn1cc(-c2cc3c(cn2)cnn3-c2cccc(N3CC4(CNC4)C3)n2)cn1 [Compound 267]	8.42
Cc1cncc(-c2cc3c(cn2)cnn3-c2cnc(Cl)c(N3CCC[C@H](N)C3)n2)n1 [Compound 226]	8.78
Cc1cncc(-c2cc3c(cn2)cnn3-c2ccc(C)c(N3CCC[C@H](N)C3)n2)n1 [Compound 205]	10.74

1: Cn1cc(-c2cc3c(cn2)cnn3-c2cccc(N3CC(CN)C3)n2)cn1 [Compound 256]
2: FC(F)(F)Cn1cc(-c2cc3c(cn2)cnn3-c2cncc(N3CCCNCC3)n2)cn1 [Compound 178]
3: O[C@H]1CNCCN(c2cccc(-n3ncc4cnc(-c5cnn(CC(F)(F)F)c5)cc43)n2)C1 [Compound 189]
Query :: Rank entries according to their pKi, from the largest number down. Please reply with the labels ordered as requested. Many thanks.
Result :: 3, 2, 1
(3: 10.42, 2: 9.41, 1: 8.25)

----------
pKi: −log10 of the molar value.
Reported pKi, PIM3 (Homo sapiens (Human), UniProt Q86V86).
quantity measured: pKi

compound	target or test system	pKi
Cc1cncc(-c2cc3c(cn2)cnn3-c2cccc(N3CCNC(C)C3)n2)n1 (centres unmarked) [Compound 169]	PIM3 (Homo sapiens (Human), UniProt Q86V86)	9.79
Cc1cncc(-c2cc3c(cn2)cnn3-c2cccc(N3CCC[C@H](N)C3=O)n2)n1 [Compound 225]	PIM3 (Homo sapiens (Human), UniProt Q86V86)	9.57
Cc1cnc(O)c(-c2cc3c(cn2)cnn3-c2cncc(N3CCCNCC3)n2)c1 [Compound 164]	PIM3 (Homo sapiens (Human), UniProt Q86V86)	7.83
Cc1cncc(-c2cc3c(cn2)cnn3-c2cccc(OC3CCCC(N)C3)n2)n1 (centres unmarked) [Compound 311]	PIM3 (Homo sapiens (Human), UniProt Q86V86)	10.44
c1cc(N2CCCNCC2)nc(-n2ncc3cnc(-c4cn[nH]c4)cc32)c1 [Compound 180]	PIM3 (Homo sapiens (Human), UniProt Q86V86)	10.07

A: c1ccc(COc2cncc(-c3cc4c(cn3)cnn4-c3cccc(N4CCNCC4)n3)n2)cc1 [Compound 276]
B: Cc1cncc(-c2cc3c(cn2)cnn3-c2ccc(C)c(N3CCC[C@H](N)C3=O)n2)n1 [Compound 245]
Query :: Short answer wanted: higher pKi, A or B ? API: response body contains the label of the selected item.
Result :: A

----------
Reported Ki, PIM2 (Homo sapiens (Human), UniProt Q9P1W9).
quantity measured: Ki (nM)

Look over these answered cases.
molecule	target or test system	units	Ki
FC(F)(F)Cn1cc(-c2cc3c(cn2)cnn3-c2cccc(N3CCCNCC3)n2)cn1	PIM2 (Homo sapiens (Human), UniProt Q9P1W9)	nM	1.01
FC(F)n1cc(-c2cc3c(cn2)cnn3-c2cccc(N3CCCNCC3)n2)cn1	PIM2 (Homo sapiens (Human), UniProt Q9P1W9)	nM	9.54
CC#Cc1cncc(-c2cc3c(cn2)cnn3-c2cccc(N3CCNCC3)n2)n1	PIM2 (Homo sapiens (Human), UniProt Q9P1W9)	nM	1.71

I: Cc1cncc(-c2cc3c(cn2)cnn3-c2ccc3c(n2)CC(CN)CO3)n1 (centres unmarked)
II: Cc1cncc(-c2cc3c(cn2)cnn3-c2cccc(N3CC[C@@H](N)C3)n2)n1
III: Cc1cncc(-c2cc3c(cn2)cnn3-c2ccc(C(F)(F)F)c(N3CCC[C@H](N)C3)n2)n1
Query :: Write the entries in order, lowest recorded Ki first. Please reply with the labels ordered as requested. Many thanks.
Result :: III, II, I

1: CCn1cc(-c2cc3c(cn2)cnn3-c2cccc(N3CCC(N)CC3)n2)cn1
2: Cc1cncc(-c2cc3c(cnn3-c3cccc(N4CCNCC4)n3)nn2)n1
3: Cn1cc(-c2cc3c(cn2)cnn3-c2cccc(N3CCCNCC3)n2)cn1
Query :: Write the entries in order, lowest recorded Ki first. Please reply with the labels ordered as requested. Many thanks.
Result :: 2, 3, 1

A: COc1ncc(-n2ncc3cnc(-c4cncc(C)n4)cc32)nc1N1CCC[C@H](N)C1
B: Cc1cncc(-c2cc3c(cn2)cnn3-c2cc(C3COC3)cc(N3CCC[C@H](N)C3)n2)n1
Query :: Which of these two has the smaller recorded Ki: A or B ? API: response body contains the label of the selected item.
Result :: A
(A: 0.979 nM, B: 24.8 nM)

I: COc1ccc(-n2ncc3cnc(-c4cncc(C)n4)cc32)nc1N1CCCNC1=O
II: Cc1cncc(-c2cc3c(cn2)cnn3-c2ccc(C)c(N3CCC[C@H](N)C3=O)n2)n1
Query :: Which of these two has the smaller recorded Ki: I or II ? API: response body contains the label of the selected item.
Result :: II

The measurements presented in this section are drawn from patent US9434725B2.
